# relative viability per record follows
System: NCI-H661
Assay: relative viability (nuclei count vs DMSO), 5 days (fraction); higher = more cells survive
Conditions: first compound 0.000632 µM
Lab note: write the figure by itself, no unit.

Known relative viability results, listed for orientation:
Compound: CC(=O)O[C@@]12CO[C@@H]1C[C@H](O)[C@@]1(C)C(=O)[C@H](O)C3=C(C)[C@@H](OC(=O)[C@H](O)[C@@H](NC(=O)OC(C)(C)C)c4ccccc4)C[C@@](O)([C@@H](OC(=O)c4ccccc4)[C@H]21)C3(C)C [Docetaxel] + O=C(c1cc(Cc2n[nH]c(=O)c3ccccc23)ccc1F)N1CCN(C(=O)C2CC2)CC1 [Olaparib] (partner 8 µM)
relative viability: 0.701

Compound: CC(=O)O[C@@]12CO[C@@H]1C[C@H](O)[C@@]1(C)C(=O)[C@H](O)C3=C(C)[C@@H](OC(=O)[C@H](O)[C@@H](NC(=O)OC(C)(C)C)c4ccccc4)C[C@@](O)([C@@H](OC(=O)c4ccccc4)[C@H]21)C3(C)C [Docetaxel] + Nc1nc2[nH]cc(CCc3ccc(C(=O)N[C@@H](CCC(=O)O)C(=O)O)cc3)c2c(=O)[nH]1 [Pemetrexed] (partner 0.2 µM)
relative viability: 0.944

Compound: CC(=O)O[C@@]12CO[C@@H]1C[C@H](O)[C@@]1(C)C(=O)[C@H](O)C3=C(C)[C@@H](OC(=O)[C@H](O)[C@@H](NC(=O)OC(C)(C)C)c4ccccc4)C[C@@](O)([C@@H](OC(=O)c4ccccc4)[C@H]21)C3(C)C [Docetaxel] + Nc1ncn([C@H]2C[C@H](O)[C@@H](CO)O2)c(=O)n1 [Decitabine] (partner 2 µM)
relative viability: 0.575

The record that follows has no relative viability shown yet.
Ask: Which relative viability is reported for this compound? CC(=O)O[C@@]12CO[C@@H]1C[C@H](O)[C@@]1(C)C(=O)[C@H](O)C3=C(C)[C@@H](OC(=O)[C@H](O)[C@@H](NC(=O)OC(C)(C)C)c4ccccc4)C[C@@](O)([C@@H](OC(=O)c4ccccc4)[C@H]21)C3(C)C [Docetaxel] + O=C(CCCCCCC(=O)Nc1ccccc1)NO [Vorinostat] (partner 1 µM)
Reply: 0.856

* * *

Test system: LK-2
Assay: relative viability (nuclei count vs DMSO), 5 days (fraction); higher = more cells survive
Settings: first compound 0.005 µM
// boundary case: relative viability equal to 0.5 maps to criterion not met; strictly smaller maps to criterion met

Compound: COc1cc2nccc(Oc3ccc(NC(=O)Nc4cc(C)on4)c(Cl)c3)c2cc1OC [Tivozanib] + CC(=O)Nc1cccc(-n2c(=O)n(C3CC3)c(=O)c3c(Nc4ccc(I)cc4F)n(C)c(=O)c(C)c32)c1 [Trametinib] (partner 0.02 µM)
Label Value: criterion not met
--
Compound: COc1cc2nccc(Oc3ccc(NC(=O)Nc4cc(C)on4)c(Cl)c3)c2cc1OC [Tivozanib] + C[C@@H](Oc1cc(-c2cnn(C3CCNCC3)c2)cnc1N)c1c(Cl)ccc(F)c1Cl [Crizotinib] (partner 1 µM)
Label Value: criterion met
--
Compound: Nc1ccn([C@@H]2O[C@H](CO)[C@@H](O)[C@@H]2O)c(=O)n1 [Cytarabine] + Cc1nc(NC(=O)N2CCC[C@H]2C(N)=O)sc1-c1ccnc(C(C)(C)C(F)(F)F)c1 [Alpelisib] (partner 2 µM)
Label Value: criterion not met

Ask: Criterion: relative viability strictly below 0.5. Is it met by COc1cc2nccc(Oc3ccc(NC(=O)Nc4cc(C)on4)c(Cl)c3)c2cc1OC [Tivozanib] + C[C@]1(O)C[C@@H](c2nc(-c3ccc4ccc(-c5ccccc5)nc4c3)c3c(N)nccn32)C1 [Linsitinib] (partner 1 µM) ?
Reply: criterion not met

Ask: Criterion: relative viability strictly below 0.5. Is it met by COc1cc2nccc(Oc3ccc(NC(=O)Nc4cc(C)on4)c(Cl)c3)c2cc1OC [Tivozanib] + O=C(CCCCCCC(=O)Nc1ccccc1)NO [Vorinostat] (partner 1 µM) ?
Reply: criterion met
